# IC50 measurements, system: cGMP PDE5 (UniProt O76074)
Numeric only. Scale: nM

INSERT INTO results (smilesstr, measurementtype, resultvalue) VALUES
  ('CCOc1ccc(S(=O)(=O)N2CCC(CC)CC2)cc1-c1nc2c(CC)n(Cc3ccccn3)nc2c(=O)[nH]1', 'IC50', 26.6);

// query Fill in: IC50 of `CCc1c2nc(-c3cc(S(=O)(=O)N4CCC(CC)CC4)cnc3OCCOC)[nH]c(=O)c2nn1Cc1ccccn1` is ___
// result 10.3
